- System: Retinoic acid receptor alpha (Homo sapiens) (UniProt P10276)
- Sequence (P10276 whole entry, looked up): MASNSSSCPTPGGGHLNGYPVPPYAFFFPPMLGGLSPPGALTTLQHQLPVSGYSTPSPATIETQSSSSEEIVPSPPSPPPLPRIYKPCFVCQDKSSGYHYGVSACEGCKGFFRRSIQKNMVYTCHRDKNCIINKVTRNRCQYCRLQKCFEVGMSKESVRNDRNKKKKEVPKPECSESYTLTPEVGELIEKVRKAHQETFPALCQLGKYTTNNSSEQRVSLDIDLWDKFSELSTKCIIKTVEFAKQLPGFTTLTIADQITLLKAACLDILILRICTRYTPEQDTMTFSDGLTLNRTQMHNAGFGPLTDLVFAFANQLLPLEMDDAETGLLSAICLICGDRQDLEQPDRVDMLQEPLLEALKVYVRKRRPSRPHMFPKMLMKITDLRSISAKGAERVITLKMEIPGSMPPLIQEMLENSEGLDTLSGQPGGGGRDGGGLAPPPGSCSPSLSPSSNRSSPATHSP
- Assay Remarks: ATG_DR5_RAR_CIS: Attagene CIS-FACTORIAL HepG2 Assay for human Retinoic Acid Receptor Alpha (RARE), DR5 submotif (AID 2282934)
- Setup Conditions: HepG2 Attagene cis-factorial RARE DR5 reporter, mRNA; actives raise or lower the signal
Calls of active or inactive are those of the source. Rule for the calls: active = hit-call score of the fitted dose curve at least 0.9, where 1 is the maximum; inactive = score below 0.9.
Possible outcomes: true (1) (active), false (0) (inactive)

{"Molecule": "c1ccc(CNCc2ccccc2)cc1", "Category Label": "false (0)"}
{"Molecule": "CC(=O)OC1C2(C)CCC(C2)C1(C)C (stereo unspecified)", "Category Label": "false (0)"}
{"Molecule": "CC(=O)NS(=O)(=O)c1ccc(N)cc1", "Category Label": "false (0)"}
{"Molecule": "C=CC(=O)NC(C)(C)CS(=O)(=O)O", "Category Label": "false (0)"}
{"Molecule": "Cc1ccc2c(c1)C(=O)c1ccccc1C2=O", "Category Label": "false (0)"}
{"Molecule": "CC(=O)[C@H]1[C@H](C#N)C[C@H]2[C@@H]3CC=C4C[C@@H](O)CC[C@]4(C)[C@H]3CC[C@@]21C", "Category Label": "false (0)"}
{"Molecule": "NC(=O)c1ccccc1O", "Category Label": "false (0)"}
{"Molecule": "N#CCc1ccc(Cl)cc1Cl", "Category Label": "false (0)"}
{"Molecule": "O=C(c1ccc(O)cc1)c1ccc(O)cc1O", "Category Label": "false (0)"}
{"Molecule": "CN(C)c1ccc(N=Nc2ccccc2C(=O)O)cc1", "Category Label": "false (0)"}
{"Molecule": "O=C(Cl)c1cc(C(=O)Cl)cc(C(=O)Cl)c1", "Category Label": "false (0)"}
{"Molecule": "CCCCCCOC(=O)C(C)CC (stereo unspecified)", "Category Label": "false (0)"}
{"Molecule": "Cc1cc(C)c(C)c(O)c1", "Category Label": "false (0)"}
{"Molecule": "CC(C)(C)C1CCCCC1=O (stereo unspecified)", "Category Label": "false (0)"}
{"Molecule": "c1c[nH]cn1", "Category Label": "false (0)"}
{"Molecule": "CCOC(=O)NNc1nncc2ccccc12", "Category Label": "false (0)"}
{"Molecule": "O=C(O)c1cc(Cl)cc([N+](=O)[O-])c1Cl", "Category Label": "false (0)"}
{"Molecule": "Cc1cccc(N)n1", "Category Label": "false (0)"}
{"Molecule": "O=C(O)C(c1ccc(Cl)cc1)c1ccc(Cl)cc1", "Category Label": "false (0)"}
{"Molecule": "Nc1nc2ccccc2[nH]1", "Category Label": "false (0)"}
{"Molecule": "c1cc(N(CC2CO2)CC2CO2)ccc1OCC1CO1 (stereo unspecified)", "Category Label": "true (1)"}
{"Molecule": "Cc1cccc(N(C)C(=S)Oc2ccc3ccccc3c2)c1", "Category Label": "false (0)"}
{"Molecule": "Nc1ccc(N)c(Cl)c1", "Category Label": "true (1)"}
{"Molecule": "COc1ccc([C@@H]2CC(=O)c3c(O)cc(O[C@@H]4O[C@H](CO[C@@H]5O[C@@H](C)[C@H](O)[C@@H](O)[C@H]5O)[C@@H](O)[C@H](O)[C@H]4O)cc3O2)cc1OC", "Category Label": "false (0)"}
{"Molecule": "O=c1cc(-c2ccccc2)oc2ccccc12", "Category Label": "false (0)"}
{"Molecule": "O=C1CCCCCCCCCCC(=O)OCCO1", "Category Label": "false (0)"}
{"Molecule": "CC(C)CC(O)Cc1ccccc1 (stereo unspecified)", "Category Label": "false (0)"}
{"Molecule": "CCOC(=O)N1CCC(=C2c3ccc(Cl)cc3CCc3cccnc32)CC1", "Category Label": "false (0)"}
{"Molecule": "CC(C)c1ccc2cc(C(C)C)ccc2c1", "Category Label": "true (1)"}
{"Molecule": "CN1C(=O)N(C)C(O)C1O (stereo unspecified)", "Category Label": "false (0)"}
{"Molecule": "C=C(C)C(=O)OCCOc1ccccc1", "Category Label": "false (0)"}
{"Molecule": "OCCCS", "Category Label": "false (0)"}
{"Molecule": "CC1=NN(c2cc(S(=O)(=O)O)ccc2Cl)C(=O)C1N=Nc1ccccc1 (stereo unspecified)", "Category Label": "false (0)"}
{"Molecule": "CC(C)C1=CC2=CC[C@@H]3[C@](C)(CCC[C@@]3(C)C(=O)O)[C@H]2CC1", "Category Label": "false (0)"}
{"Molecule": "O=C1CC2CC1C1CCCC21 (stereo unspecified)", "Category Label": "false (0)"}
{"Molecule": "Cc1cccc(OCCOc2cccc(C)c2)c1", "Category Label": "false (0)"}
{"Molecule": "Cc1cc(C)c(C)c(C)c1", "Category Label": "false (0)"}
{"Molecule": "CC(=O)OC(C)C", "Category Label": "false (0)"}
{"Molecule": "Cc1ccc([N+](=O)[O-])cc1S(=O)(=O)O", "Category Label": "false (0)"}
{"Molecule": "CC(=O)c1ccc[nH]1", "Category Label": "false (0)"}
{"Molecule": "C=CC(=O)OCCOC(=O)C=C", "Category Label": "false (0)"}
{"Molecule": "CCCCCCCCc1ccc(Nc2ccc(CCCCCCCC)cc2)cc1", "Category Label": "false (0)"}
{"Molecule": "CCc1ccc2c(c1)C(=O)c1ccccc1C2=O", "Category Label": "false (0)"}
{"Molecule": "COC(=O)c1ccccc1OC", "Category Label": "false (0)"}
{"Molecule": "C=C[C@](C)(O)CC[C@@H]1[C@@]2(C)CCCC(C)(C)[C@@H]2CC[C@@]1(C)O", "Category Label": "false (0)"}
{"Molecule": "O=C(O)CC(C(=O)O)C(CC(=O)O)C(=O)O (stereo unspecified)", "Category Label": "false (0)"}
{"Molecule": "CC(C)=CCC[C@H](C)CCO", "Category Label": "false (0)"}
{"Molecule": "C[Si](C)(C)O[Si](O)(O)O", "Category Label": "false (0)"}
{"Molecule": "OC1OCCOC1O (stereo unspecified)", "Category Label": "false (0)"}
{"Molecule": "Cc1cc(O)c(Cl)c(C)c1Cl", "Category Label": "false (0)"}
{"Molecule": "O=C(O)c1cc2ccccc2nc1C(=O)O", "Category Label": "false (0)"}
{"Molecule": "OC1CCCC1", "Category Label": "false (0)"}
{"Molecule": "COCc1c(C(C)C)nc(C(C)C)c(/C=C/[C@@H](O)C[C@@H](O)CC(=O)O)c1-c1ccc(F)cc1", "Category Label": "false (0)"}
{"Molecule": "C[C@]12CCC(=O)C=C1CC[C@@H]1[C@@H]2C(=O)C[C@@]2(C)[C@H]1CC[C@]2(O)C(=O)CO", "Category Label": "false (0)"}
{"Molecule": "CC1OC1C1CCC2(C)OC2C1 (stereo unspecified)", "Category Label": "false (0)"}
{"Molecule": "O=c1c2ccccc2oc2ccccc12", "Category Label": "false (0)"}
